target: Solute carrier family 12 member 5 (Homo sapiens); test: modulation of human KCC2 ion transport – cell-based, HEK293 KCC2, FluoZin-2 fluorescence, MLSMR, primary screen (AID 1456); conditions: KCC2 cells, thallium flux FluoZin-2 fluorescence; at 10 µM;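 note: slope of fluorescence scaled to starting intensity during 10 to 20 s after thallium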
The whole screen tested about 190,000 compounds, of which about 4,100 (2.2%) were called active. Many of the other results were omitted from the sample, so actives are more common in it than they were.
readout: B-score of Tl+ flux slope (higher = more flux/activation; lower = inhibition)
Just the number, please, no unit attached.

Sample answers from the record:
molecule="C/C=C(\\C)C(=O)N1CC2(CC(c3cccc(NC(=O)CCCCC)c3)=NO2)C[C@@H]1C(N)=O (some centres not stated)" experimental_result=-0.00449
molecule=CCCCn1c(=S)[nH]c2ncccc2c1=O experimental_result=49.5
molecule=CN1CCN(c2ccc(CNS(=O)(=O)c3cccc(F)c3)cc2)CC1 experimental_result=-0.58

Entry COC(=O)C1=C(N)Oc2cc(C)[nH]c(=O)c2C1c1ccc(Cl)cc1 (configuration not stated) , B-score of Tl+ flux slope (higher = more flux/activation; lower = inhibition) reported as -2.12

Entry O=C(NCC(c1cccs1)N1CCOCC1)c1cc(-c2ccccn2)nc2ccccc12 (configuration not stated) , B-score of Tl+ flux slope (higher = more flux/activation; lower = inhibition) reported as -0.17

Entry CCCOC(=O)CC1C(=O)NCCN1Cc1ccc(F)cc1 (configuration not stated) , B-score of Tl+ flux slope (higher = more flux/activation; lower = inhibition) reported as -4.12

Entry CN(Cc1cccc2ncccc12)C(=O)CC1C(=O)NCCN1Cc1ccc(F)cc1 (configuration not stated) , B-score of Tl+ flux slope (higher = more flux/activation; lower = inhibition) reported as -0.00882

Entry O=C(Oc1c(-c2ccco2)oc2ccccc2c1=O)c1cccnc1 , B-score of Tl+ flux slope (higher = more flux/activation; lower = inhibition) reported as 40.4

Entry O=C(CC1C(=O)NCCN1Cc1ccc(-c2ccccc2)cc1)NCC1CCOCC1 (configuration not stated) , B-score of Tl+ flux slope (higher = more flux/activation; lower = inhibition) reported as 0.966

Entry Cn1c2ccccc2c2cc(/C=C(\NC(=O)c3ccccc3)C(=O)NCC(=O)O)ccc21 , B-score of Tl+ flux slope (higher = more flux/activation; lower = inhibition) reported as 0

Entry CCN(CC)CCn1c(=S)[nH]c2ncccc2c1=O , B-score of Tl+ flux slope (higher = more flux/activation; lower = inhibition) reported as 0.847

Entry CCC(C)(C)NC(=O)C(c1ccc(O)cc1)N(C(=O)Cn1nnc2ccccc21)c1ccc(NC(C)=O)cc1 (configuration not stated) , B-score of Tl+ flux slope (higher = more flux/activation; lower = inhibition) reported as 1.51
